tgt: Fuc(a1-2)[GalNAc(a1-3)]Gal(b1-4)Glc
assay: glycan array binding signal (z-score within array); higher = stronger binding
study conditions: glycan notation: IUPAC condensed, linker removed
This excerpt belongs to a sample that is enriched for the strongest signals.

binder	glycan array binding signal (z-score)
Epa23 (Candida glabrata) (protein) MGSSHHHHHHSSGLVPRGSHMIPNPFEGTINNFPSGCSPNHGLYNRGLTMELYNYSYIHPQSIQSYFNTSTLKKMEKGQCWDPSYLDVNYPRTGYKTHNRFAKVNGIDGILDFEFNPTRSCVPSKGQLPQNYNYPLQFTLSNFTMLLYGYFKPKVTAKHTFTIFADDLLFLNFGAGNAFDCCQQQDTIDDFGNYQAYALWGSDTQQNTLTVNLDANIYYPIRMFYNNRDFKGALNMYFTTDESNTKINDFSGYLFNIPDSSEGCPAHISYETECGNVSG	-0.234
CBP21 (Serratia marcescens), O83009 (protein) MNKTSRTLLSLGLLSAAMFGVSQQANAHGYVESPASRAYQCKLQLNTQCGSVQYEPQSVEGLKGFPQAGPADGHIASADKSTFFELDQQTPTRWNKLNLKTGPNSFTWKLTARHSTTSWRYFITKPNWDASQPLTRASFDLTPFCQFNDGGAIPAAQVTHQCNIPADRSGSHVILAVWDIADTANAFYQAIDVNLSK	-0.513
SBD (Rhizopus oryzae), P07683 (protein) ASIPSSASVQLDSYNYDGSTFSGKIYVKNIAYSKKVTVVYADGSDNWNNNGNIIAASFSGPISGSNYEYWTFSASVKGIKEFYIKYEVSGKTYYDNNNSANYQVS	-0.2
